# ka annotations
Biological target: full-length, proteolytically inactive Taspase 1 (Homo sapiens, UniProt Q9H6P5, D233A/T234A)
Sequence (Q9H6P5 1-420 D233A/T234A): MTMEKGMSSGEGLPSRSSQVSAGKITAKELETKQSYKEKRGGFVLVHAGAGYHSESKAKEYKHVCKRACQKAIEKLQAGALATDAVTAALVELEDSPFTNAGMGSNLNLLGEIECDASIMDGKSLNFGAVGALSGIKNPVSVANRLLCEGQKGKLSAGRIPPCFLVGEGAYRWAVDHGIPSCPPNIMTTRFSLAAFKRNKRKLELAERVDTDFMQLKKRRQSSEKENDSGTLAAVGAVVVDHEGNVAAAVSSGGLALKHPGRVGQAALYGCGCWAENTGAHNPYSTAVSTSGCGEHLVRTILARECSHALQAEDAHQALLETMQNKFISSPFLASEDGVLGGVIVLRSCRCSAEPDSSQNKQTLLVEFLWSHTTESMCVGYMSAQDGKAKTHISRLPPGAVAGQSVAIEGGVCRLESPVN
Assay: Surface plasmon resonance on immobilized full-length, inactive Taspase 1
Type: binding
Conditions: isomer Z; Table S3; n = 2
Entry format: amount then unit.

Cc1nn(Cc2cn(CCOP(=O)(O)Oc3c4c(c(OP(=O)(O)O)c5c3C3CC5c5cc6c(cc53)C3CC6c5ccccc53)C3CC4c4cc5c(cc43)C3CC5c4ccccc43)nn2)c(C)c1N=Nc1ccc(-c2cn(CCOP(=O)(O)Oc3c4c(c(OP(=O)(O)O)c5c3C3CC5c5cc6c(cc53)C3CC6c5ccccc53)C3CC4c4cc5c(cc43)C3CC5c4ccccc43)nn2)cc1: 750 ± 76.2 M⁻¹ s⁻¹

The measured ka associated with Cc1nn(-c2ccc(C#Cc3ccc(-c4cn(CCOP(=O)(O)Oc5c6c(c(OP(=O)(O)O)c7c5C5CC7c7cc8c(cc75)C5CC8c7ccccc75)C5CC6c6cc7c(cc65)C5CC7c6ccccc65)nn4)cc3)cc2)c(C)c1N=Nc1ccc(C#Cc2ccc(-c3cn(CCOP(=O)(O)Oc4c5c(c(OP(=O)(O)O)c6c4C4CC6c6cc7c(cc64)C4CC7c6ccccc64)C4CC5c5cc6c(cc54)C4CC6c5ccccc54)nn3)cc2)cc1 reads 3340 ± 688 M⁻¹ s⁻¹

The measured ka associated with Cc1nn(-c2ccc(-n3cc(CCOP(=O)(O)Oc4c5c(c(OP(=O)(O)O)c6c4C4CC6c6cc7c(cc64)C4CC7c6ccccc64)C4CC5c5cc6c(cc54)C4CC6c5ccccc54)nn3)cc2)c(C)c1N=Nc1ccc(-n2cc(CCOP(=O)(O)Oc3c4c(c(OP(=O)(O)O)c5c3C3CC5c5cc6c(cc53)C3CC6c5ccccc53)C3CC4c4cc5c(cc43)C3CC5c4ccccc43)nn2)cc1 reads 1040 ± 20.5 M⁻¹ s⁻¹

The measured ka associated with Cc1nn(-c2ccc(-c3cn(CCOP(=O)(O)Oc4c5c(c(OP(=O)(O)O)c6c4C4CC6c6cc7c(cc64)C4CC7c6ccccc64)C4CC5c5cc6c(cc54)C4CC6c5ccccc54)nn3)cc2)c(C)c1N=Nc1ccc(-c2ccc(-c3cn(CCOP(=O)(O)Oc4c5c(c(OP(=O)(O)O)c6c4C4CC6c6cc7c(cc64)C4CC7c6ccccc64)C4CC5c5cc6c(cc54)C4CC6c5ccccc54)nn3)cc2)cc1 reads 3810 ± 2090 M⁻¹ s⁻¹
